FYI, the data here is from PubChem BioAssay (NCI).

Test system: SNB-75 CNS
ASSAY INFO: NCI tumour cell line growth inhibition, 48 h
MEASUREMENT LABEL: TGI

Req: Give the reported TGI for this compound. CCOC(=O)CCc1cc(=O)oc2cc(O)cc(O)c12
Resp: > 100 µM

Req: Give the reported TGI for this compound. O=C(CN1CCOCC1)Nc1ccc(Cn2nnc3c2C(=O)c2nnn(Cc4ccc(NC(=O)CN5CCOCC5)cc4)c2C3=O)cc1
Resp: 3.04 µM

Req: Give the reported TGI for this compound. O=C(c1ccco1)c1nc2ccc(C(F)(F)F)cc2[n+]([O-])c1C(F)(F)F
Resp: 37.8 µM

Req: Give the reported TGI for this compound. C[C@]12CC[C@@H]3c4ccc(O)cc4CC[C@H]3[C@@H]1C/C(=C\c1ccncc1)C2=O
Resp: > 100 µM

Req: Give the reported TGI for this compound. CC[CH2][Pb]([CH2]CC)([CH2]CC)[O]C(=O)C(F)(F)F
Resp: 0.377 µM

Req: Give the reported TGI for this compound. O=C(O)c1cc2c(cc1CC(Cc1ccc3c(c1)CCC3)C(=O)O)CCC2 (stereo not given)
Resp: > 100 µM

Req: Give the reported TGI for this compound. O=C1OCc2c1cc1ccc(O)c(OC3OC(CO)C(O)C(O)C3O)c1c2-c1ccc2c(c1)OCO2 (stereo not given)
Resp: > 100 µM

Req: Give the reported TGI for this compound. CCOC(=O)NC(=O)c1cn(C2OC(COC(=O)CCCCCCCCC(=O)OCC3OC(n4cc(C(=O)NC(=O)OCC)c(=O)[nH]c4=O)C(O)C3O)C(O)C2O)c(=O)[nH]c1=O (stereo not given)
Resp: > 100 µM

Req: Give the reported TGI for this compound. COC(=O)C(=O)C(C(=O)C=C(C)C)C(=O)C(=O)Nc1cc(C(F)(F)F)ccc1Cl (stereo not given)
Resp: > 100 µM

Req: Give the reported TGI for this compound. Cn1cc2ccccc2c1-c1nc(N)nc(F)n1
Resp: > 100 µM
